Where these numbers come from: patent US11753445B2

Experiment: Stability in mouse plasma, peptides 100 uM (Example 14)
Format: in vitro ADME
Settings: pooled mouse plasma; mouse plasma 37° C.; peptide 100 uM; 180 min; read-out: % Remaining at Each Time Point: 180 min
quantity: remaining at 3 h, 100 uM (%)

substance | remaining at 3 h, 100 uM / %
H-MRWQEMGYIFYPAKLR-OH [compound 18] | 4.53
H-MRWQEMGYIFYPRK(Ac)LR-OH [compound 69] | 2.11
Ac-MRWQEMGYIFYPR-NH2 [compound 61] | 29.1
H-RWQEMGYIFYPRQLR-OH [compound 217] | 14.1
H-RWQEMGYIFYPRALR-OH [compound 215] | 6.98

I. H-MRWQEMGYIFYPRKLA-OH [compound 21]
II. H-MRWQEMGYIFYPR-OH [compound 47]
III. H-RWQEMNYIFYPR-OH [compound 210]
Please produce an ascending ranking of these substances based on remaining at 3 h, 100 uM. Answer format: the labels, in the requested order.
I, II, III
